- Assay Comment: Plasma clearance was measured in hamster at the dose of 10 mg/kg by peroral administration
- Assay type: ADME, organism-based, Cricetulus griseus
- Design: dose 10 mg/kg, route oral
- Condition Parameters: chinese hamster, po, read-out: Clp

Structure Smiles	CL/F (mL/min/kg)
CC(C)[C@H]1C(=O)N(S(C)(=O)=O)[C@H]2CN(C(=O)CCN3CCCCC3)C[C@H]12.Cl	60
CCC[C@H]1C(=O)N(S(C)(=O)=O)[C@H]2CN(C(=O)CCN3CCCCC3)C[C@H]12.Cl	140
